Design: species or system Sprague-Dawley rats
TEST_SETTINGS: rat, in vivo, iv, 2 mg/kg
Square brackets hold non-standard residues; d marks the D form. Peptide text beside a SMILES is read from it. * marks the point of attachment. Piperazin2one(3S-Bu,6R-CO) = CCCC[C@@H]1NC[C@H](C(=O)*)NC1=O; X1 = N=C(N)NCCC[C@H]1C(=O)N[C@@H](C(N)=O)CN1*; Nle = CCCC[C@H](N)C(=O)O
PROPERTY_MEASURED: clearance (mL/min/kg)
Number in mL/min/kg, nothing else.

Query string: Fill blank: measured clearance of the molecule CCCC[C@@H]1NC[C@H](C(=O)N[C@@H](C)C(=O)N[C@@H](Cc2c[nH]cn2)C(=O)N[C@@H](Cc2ccccc2)C(=O)NCC(=O)NCC(=O)N[C@@H](CCCNC(=N)N)C(=O)N[C@@H](CCCC)C(=O)N[C@@H](CC(=O)O)C(=O)N[C@@H](CCCNC(=N)N)C(=O)N[C@H](C(=O)N[C@@H](CO)C(=O)N[C@@H](C)C(=O)N[C@@H](Cc2ccc(O)cc2)C(=O)N2C[C@H](C(N)=O)NC(=O)[C@@H]2CCCNC(=N)N)[C@@H](C)CC)NC1=O [Construct 1-30] ({Piperazin2one(3S-Bu,6R-CO)}-AHFGGR[Nle]DRISAY-X1) is ____.
Result string: 131

The origin of these recorded values is patent US7795221B2.
